Below: a set of entries, each annotated with reported EC50, CRE-luciferase reporter in HEK293-GLP-1R-CRE cells.
- system.name: human glucagon-like peptide 1 receptor (GLP-1R) (human, UniProt P43220 24-463)
- experiment.notes: cell-based or functional assay
Bridges are numbered along the chain shown (N, C = ends). Primed or numbered codes have the meaning given here. Where no end group is shown, it is not given here. [ ]: non-standard residue; d: D form. L4″ = octadecanedioic acid-PEG-ornithine staple, joins two Cys through thioethers; L2″ = myristic acid-PEG-ornithine staple, joins two Cys through thioethers; L1 = C4 bis(bromoacetamide) staple without lipid; L5 = C18 diacid-Lys-PEG2-ornithine staple; L2 = myristic acid-PEG-ornithine staple; L6 = made as L5 but on Rink amide resin; L12 = not defined here; L13 = not defined here; L7 = not defined here
test.readout: EC50, CRE-luciferase reporter in HEK293-GLP-1R-CRE cells (nM)

{"columns": ["binder", "recorded.result"],
 "data": [
  ["H[dS]QGTFTSDYSKYLDECAAKEFICWLMNTKRNRNNIA (linker 17-24 via L2″) [mTA 16: OXM (B) and L2]", 0.04],
  ["H[dS]QGTFTSDYSKYLDECAAKEFICWLLRA (linker 17-24 via L1) [mTA 29: GLP-1/Glucagon (B) and L1]", 0.03],
  ["H[dS]QGTFTSDYSKYLDECAAKEFICWLLRAGPSSGAPPPS (linker 17-24 via L5) [mTA 35: GLP-1/Glucagon (C) and L5]", 0.5],
  ["H[dS]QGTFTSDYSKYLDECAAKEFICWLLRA (linker 17-24 via L2) [mTA 30: GLP-1/Glucagon (B) and L2]", 0.03],
  ["H[dS]QGTFTSDYSKYLDSCAAHDFVCWLLRA (linker 17-24 via L2) [mTA 28: GLP-1/Glucagon (A) and L2]", 0.1],
  ["H[dS]QGTFTSDYSKYLDECAAKEFICWLMNTKRNRNNIA (linker 17-24 via L7; reading uncertain; also: printed as HsQGTFTSDYSKYLDEXAAKEFIXWLMNTKRNRNNIA) [mTA 20: OXM (B) and L7]", 17],
  ["H[dS]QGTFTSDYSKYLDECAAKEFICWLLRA (linker 17-24 via L6) [mTA 33: GLP-1/Glucagon (B) and L6]", 0.05],
  ["H[dS]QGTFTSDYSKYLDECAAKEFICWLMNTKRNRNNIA (linker 17-24 via L13; reading uncertain; also: printed as HsQGTFTSDYSKYLDEXAAKEFIXWLMNTKRNRNNIA) [mTA 26: OXM (B) and L13]", 0.05],
  ["H[dS]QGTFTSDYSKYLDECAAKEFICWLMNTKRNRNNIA (linker 17-24 via L12; reading uncertain; also: printed as HsQGTFTSDYSKYLDEXAAKEFIXWLMNTKRNRNNIA) [mTA 25: OXM (B) and L12]", 0.1],
  ["H[dS]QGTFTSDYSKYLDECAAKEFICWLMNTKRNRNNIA (linker 17-24 via L4″) [mTA 17: OXM (B) and L4]", 2]
]}
